Data provenance: ChEMBL document CHEMBL5543168

target: UniProtKB P30041; assay: Inhibition of recombinant PRDX6 (unknown origin) using H2O2 as substrate preincubated for 0.5 hrs followed by substrate addition by TRX-TrxR-NADPH coupling assay
Sequence (P30041 whole entry): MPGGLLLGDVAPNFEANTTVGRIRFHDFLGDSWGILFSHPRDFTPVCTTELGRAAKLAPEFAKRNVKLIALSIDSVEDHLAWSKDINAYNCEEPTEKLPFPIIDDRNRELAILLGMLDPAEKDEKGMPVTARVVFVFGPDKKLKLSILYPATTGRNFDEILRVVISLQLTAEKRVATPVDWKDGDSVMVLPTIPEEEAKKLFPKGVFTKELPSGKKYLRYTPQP

lineNotation: COC(=O)C1(NC(=O)N[C@]2(C)CC[C@]3(C)CC[C@]4(C)C5=CC=C6C(=CC(=O)C(O)=C6C)[C@]5(C)CC[C@@]4(C)[C@@H]3C2)CCC1
IC50: > 50 µM

====

target: Peroxiredoxin-1 (Homo sapiens, UniProt Q06830); assay: Binding affinity to CM5 sensor chip-immobilized recombinant PRDX1 (unknown origin) assessed as dissociation constant by SPR analysis
Sequence (Q06830 whole entry): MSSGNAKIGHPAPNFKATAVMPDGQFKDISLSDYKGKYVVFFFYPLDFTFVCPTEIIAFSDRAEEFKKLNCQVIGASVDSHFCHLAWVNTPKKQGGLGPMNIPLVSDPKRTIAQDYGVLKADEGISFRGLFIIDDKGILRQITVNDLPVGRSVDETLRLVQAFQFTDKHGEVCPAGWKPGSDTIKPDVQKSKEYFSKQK

lineNotation: COC(=O)C1(NC(=O)N[C@]2(C)CC[C@]3(C)CC[C@]4(C)C5=CC=C6C(=CC(=O)C(O)=C6C)[C@]5(C)CC[C@@]4(C)[C@@H]3C2)CCC1
subjectOfTest: Peroxiredoxin-1 (Homo sapiens, UniProt Q06830)
Kd, nM: 370

====

test: Volume of distribution in mouse at 2 mg/kg, iv measured for 24 hrs by LC-MS/MS analysis; type: ADME, organism-based; details: in vivo
experimentalReadout: Vd (L/kg)

lineNotation: COC(=O)C1(NC(=O)N[C@]2(C)CC[C@]3(C)CC[C@]4(C)C5=CC=C6C(=CC(=O)C(O)=C6C)[C@]5(C)CC[C@@]4(C)[C@@H]3C2)CCC1
observedResult: 60.7

====

assay: Half life in mouse at 2 mg/kg, iv measured for 24 hrs by LC-MS/MS analysis; format: ADME, organism-based; conditions: in vivo
experimentalReadout: half-life (h)

lineNotation: COC(=O)C1(NC(=O)N[C@]2(C)CC[C@]3(C)CC[C@]4(C)C5=CC=C6C(=CC(=O)C(O)=C6C)[C@]5(C)CC[C@@]4(C)[C@@H]3C2)CCC1
experimentalReadout: half-life
unit: h
observedResult: 8.46

====

assay: Cmax in mouse at 2 mg/kg, iv measured for 24 hrs by LC-MS/MS analysis; format: ADME, organism-based; conditions: in vivo

lineNotation: COC(=O)C1(NC(=O)N[C@]2(C)CC[C@]3(C)CC[C@]4(C)C5=CC=C6C(=CC(=O)C(O)=C6C)[C@]5(C)CC[C@@]4(C)[C@@H]3C2)CCC1
Cmax: 203 ng/mL

====

molecular target: Peroxiredoxin-1 (Homo sapiens); assay: Inhibition of recombinant PRDX1 (unknown origin) using H2O2 as substrate preincubated for 0.5 hrs followed by substrate addition by TRX-TrxR-NADPH coupling assay
pIC50: −log10 of the molar value.

lineNotation: COC(=O)CC[C@H](NC(=O)N[C@]1(C)CC[C@]2(C)CC[C@]3(C)C4=CC=C5C(=CC(=O)C(O)=C5C)[C@]4(C)CC[C@@]3(C)[C@@H]2C1)C(=O)OC
pIC50: 6.43
//
lineNotation: COC(=O)[C@@H]1CCCN1C(=O)N[C@]1(C)CC[C@]2(C)CC[C@]3(C)C4=CC=C5C(=CC(=O)C(O)=C5C)[C@]4(C)CC[C@@]3(C)[C@@H]2C1
pIC50: 6.33
//
lineNotation: CC1=C(O)C(=O)C=C2C1=CC=C1[C@@]2(C)CC[C@@]2(C)[C@@H]3C[C@](C)(NC(=O)NCCOCCO)CC[C@]3(C)CC[C@]12C
pIC50: 6.39
//
lineNotation: CC1=C(O)C(=O)C=C2C1=CC=C1[C@@]2(C)CC[C@@]2(C)[C@@H]3C[C@](C)(NC(=O)NC(CO)CO)CC[C@]3(C)CC[C@]12C
pIC50: 6.35
//
lineNotation: COC(=O)[C@H](CCCCNC(=O)OC(C)(C)C)NC(=O)N[C@]1(C)CC[C@]2(C)CC[C@]3(C)C4=CC=C5C(=CC(=O)C(O)=C5C)[C@]4(C)CC[C@@]3(C)[C@@H]2C1
pIC50: 6.40
//
lineNotation: COC(=O)[C@H](Cc1ccc(O)cc1)NC(=O)N[C@]1(C)CC[C@]2(C)CC[C@]3(C)C4=CC=C5C(=CC(=O)C(O)=C5C)[C@]4(C)CC[C@@]3(C)[C@@H]2C1
pIC50: 6.38
